target: Keap1/Nrf2 (Homo sapiens, UniProt Q14145); assay: Inhibition of Keap1-Nrf2 (unknown origin) interaction assessed as compound's equilibrium dissociation constant after 60 mins by fluorescence anisotropy assay
Sequence (Q16236 whole entry): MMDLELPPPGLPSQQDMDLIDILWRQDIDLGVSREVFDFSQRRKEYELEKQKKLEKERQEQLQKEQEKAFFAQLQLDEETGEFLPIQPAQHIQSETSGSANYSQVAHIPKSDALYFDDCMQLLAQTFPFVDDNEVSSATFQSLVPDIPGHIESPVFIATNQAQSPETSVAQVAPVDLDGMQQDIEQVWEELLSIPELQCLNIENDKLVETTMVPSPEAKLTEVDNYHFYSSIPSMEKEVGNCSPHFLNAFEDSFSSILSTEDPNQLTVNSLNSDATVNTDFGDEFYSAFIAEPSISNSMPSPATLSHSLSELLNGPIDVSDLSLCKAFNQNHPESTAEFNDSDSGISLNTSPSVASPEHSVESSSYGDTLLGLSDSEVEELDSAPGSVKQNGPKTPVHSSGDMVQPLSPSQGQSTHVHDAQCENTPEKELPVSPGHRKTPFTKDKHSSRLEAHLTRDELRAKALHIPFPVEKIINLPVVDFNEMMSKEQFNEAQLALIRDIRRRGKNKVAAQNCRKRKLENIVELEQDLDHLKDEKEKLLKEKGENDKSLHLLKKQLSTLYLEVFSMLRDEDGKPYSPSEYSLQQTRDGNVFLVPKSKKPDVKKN
Sequence (Q14145 whole entry): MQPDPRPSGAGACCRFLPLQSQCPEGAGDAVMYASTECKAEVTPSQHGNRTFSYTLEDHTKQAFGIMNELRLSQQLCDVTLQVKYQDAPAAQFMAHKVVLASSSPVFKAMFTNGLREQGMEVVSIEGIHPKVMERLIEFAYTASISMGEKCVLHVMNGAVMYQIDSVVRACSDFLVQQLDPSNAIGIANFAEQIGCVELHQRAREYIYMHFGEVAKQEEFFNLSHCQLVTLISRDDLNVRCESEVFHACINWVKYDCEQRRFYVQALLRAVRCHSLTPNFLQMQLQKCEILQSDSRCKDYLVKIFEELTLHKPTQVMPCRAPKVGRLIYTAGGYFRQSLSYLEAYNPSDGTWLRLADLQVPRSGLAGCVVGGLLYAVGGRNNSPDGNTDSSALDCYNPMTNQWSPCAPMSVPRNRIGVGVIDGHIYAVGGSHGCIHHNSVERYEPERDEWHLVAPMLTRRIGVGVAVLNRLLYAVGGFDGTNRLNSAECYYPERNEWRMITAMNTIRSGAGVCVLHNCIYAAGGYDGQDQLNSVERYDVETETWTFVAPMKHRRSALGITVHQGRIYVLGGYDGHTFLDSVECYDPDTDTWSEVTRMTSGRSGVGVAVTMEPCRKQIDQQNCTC
pKd: −log10 of the molar value.
Reported pKd values are given for each entry in this list.
Parameter measured: pKd

>>> obs_value("Cc1cc(F)ccc1S(=O)(=O)Nc1cc(SCC(=O)O)c(O)c2ccccc12")
4.91
>>> obs_value("O=S(=O)(Nc1cc(Sc2nc[nH]n2)c(O)c2ccccc12)c1ccccc1")
4.21
>>> obs_value("O=C(O)CSc1cc(NS(=O)(=O)c2ccc(Cl)cc2)c2ccccc2c1O")
4.82
>>> obs_value("O=C(O)CSc1cc(NS(=O)(=O)c2ccc(F)cc2)c2ccccc2c1O")
4.52
>>> obs_value("O=S(=O)(Nc1cc(Sc2nnnn2-c2ccccc2)c(O)c2ccccc12)c1ccccc1")
4.26
>>> obs_value("CCOc1ccc(S(=O)(=O)Nc2cc(Sc3nc[nH]n3)c(O)c3ccccc23)cc1")
5.51
>>> obs_value("CC(C)c1ccc(S(=O)(=O)Nc2cc(SCC(=O)O)c(O)c3ccccc23)cc1")
5.19
>>> obs_value("O=C1NN(c2cccc(Cl)c2)C(=O)/C1=C\\c1ccc(-c2ccc(Br)cc2C(=O)O)o1")
4.40
>>> obs_value("O=S(=O)(Nc1cc(Sc2nc[nH]n2)c(O)c2ccccc12)c1ccc(Br)cc1")
4.88
>>> obs_value("O=C1NN(c2cccc(Cl)c2)C(=O)/C1=C\\c1ccc(-c2ccc(C(=O)O)c(Cl)c2)o1")
4.82
>>> obs_value("Cc1ccc(NC(=O)CN2C(=O)S/C(=C\\c3cccn3-c3cccc(C(=O)O)c3)C2=O)c(C)c1")
4.32
